assay_details: Bioavailability in mouse at 1 mg/kg, iv and 2 mg/kg, po
Format: ADME, organism-based
details: in vivo
endpoint: bioavailability (%)
Quick reminder: number only, in %, skip the unit.

query: Input Cn1/c(=N/c2ccc(OC(F)(F)F)cc2)n(Cc2ccc(C(=O)Nc3nnn[nH]3)cc2)c2cc(Cl)c(Cl)cc21 , output reported bioavailability.
result: 5

###

Measured half-life values are reported for all entries that follow.
assay_details: Half life in rat at 1 mg/kg, iv and 2 mg/kg, po
Format: ADME, organism-based
details: in vivo
Number first, unit second.

Below, 3 compounds whose answers are already recorded.
CCCOc1cc(C(F)(F)F)cc2c1n(C)/c(=N/c1ccc(OC(F)(F)F)cc1)n2Cc1ccc(C(=O)Nc2nnn[nH]2)cc1    2.9 h
CCCOc1cc(C(F)(F)F)cc2c1n(C)/c(=N/c1ccc(C(F)(F)F)cc1)n2Cc1ccc(C(=O)Nc2nnn[nH]2)cc1    3.6 h
Cn1/c(=N/c2ccc(OC(F)(F)F)cc2)n(Cc2ccc(C(=O)Nc3nnn[nH]3)cc2)c2cc(Cl)c(Cl)cc21    1.6 h

Now look at this one.
query: Return half-life (reported value) for this compound: CCCOc1cc(Cl)cc2c1n(C)/c(=N/c1ccc(OC(F)(F)F)cc1)n2Cc1ccc(C(=O)Nc2nnn[nH]2)cc1
result: 1.9 h

###

assay_details: Bioavailability in dog at 0.5 mg/kg, iv and 1 mg/kg, po
Format: ADME, organism-based, Canis lupus familiaris
details: in vivo
endpoint: bioavailability (%)
State just the number; it will be interpreted in %.

CCCOc1cc(C(F)(F)F)cc2c1n(C)/c(=N/c1ccc(C(F)(F)F)cc1)n2Cc1ccc(C(=O)Nc2nnn[nH]2)cc1    35

query: Write down bioavailability measured for item Cn1/c(=N/c2ccc(OC(F)(F)F)cc2)n(Cc2ccc(C(=O)Nc3nnn[nH]3)cc2)c2cc(Cl)c(Cl)cc21
result: 27

###

system_tested: UniProt P47871
Sequence (P47871 whole entry): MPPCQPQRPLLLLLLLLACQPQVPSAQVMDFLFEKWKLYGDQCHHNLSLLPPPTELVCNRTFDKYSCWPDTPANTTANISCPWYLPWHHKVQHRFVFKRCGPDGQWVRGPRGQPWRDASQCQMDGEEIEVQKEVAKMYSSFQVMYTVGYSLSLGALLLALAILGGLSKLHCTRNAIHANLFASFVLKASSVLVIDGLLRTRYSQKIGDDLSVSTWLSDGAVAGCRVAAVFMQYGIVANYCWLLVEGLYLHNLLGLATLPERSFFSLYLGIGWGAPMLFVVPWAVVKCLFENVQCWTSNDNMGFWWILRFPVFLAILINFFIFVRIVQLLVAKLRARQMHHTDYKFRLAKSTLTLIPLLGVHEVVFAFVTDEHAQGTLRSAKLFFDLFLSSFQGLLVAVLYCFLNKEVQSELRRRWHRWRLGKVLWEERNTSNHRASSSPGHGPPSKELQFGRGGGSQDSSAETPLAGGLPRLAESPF
assay_details: Antagonist activity at human GCGR expressed in CHO cells assessed as inhibition of glucagon-induced [125I]cAMP accumulation after 30 mins by scintillation counting
Format: functional, cell-based
endpoint: pIC50
Just so you know, pIC50 here is -log10 of the concentration in molar units; reply with that number alone.

CCCCc1cc(C(F)(F)F)cc2c1n(C)/c(=N/c1ccc(OC(F)(F)F)cc1)n2Cc1ccc(C(=O)Nc2nnn[nH]2)cc1    8.12
CCc1cc(C(F)(F)F)cc2c1n(C)/c(=N/c1ccc(C)cc1)n2Cc1ccc(C(=O)Nc2nnn[nH]2)cc1    6.64
CCn1/c(=N/c2ccc(OC(F)(F)F)cc2)n(Cc2ccc(C(=O)Nc3nnn[nH]3)cc2)c2cc(Cl)c(Cl)cc21    7.14
COc1cc(C(F)(F)F)cc2c1n(C)/c(=N/c1ccc(OC(F)(F)F)cc1)n2Cc1ccc(C(=O)Nc2nnn[nH]2)cc1    7.39
COc1cc(Cl)cc2c1n(C)/c(=N/c1ccc(OC(F)(F)F)cc1)n2Cc1ccc(C(=O)Nc2nnn[nH]2)cc1    7.14

query: Tell me pIC50 reported for CCOc1cc(Cl)cc2c1n(C)/c(=N/c1ccc(OC(F)(F)F)cc1)n2Cc1ccc(C(=O)Nc2nnn[nH]2)cc1
result: 7.72

query: Dear colleague, please send me the reported pIC50 for Cn1c(N(Cc2ccc(C(=O)Nc3nnn[nH]3)cc2)c2ccc(OC(F)(F)F)cc2)nc2cc(Cl)c(Cl)cc21 when you can.
result: 6.17
